Origin of the recorded values: the supplement of paper PMC10307832

System: NCI-H1395
experimental protocol: relative viability (nuclei count vs DMSO), 5 days (fraction); higher = more cells survive
stated conditions: first compound 0.01581 µM
measure: relative viability
The answer should be a number; do not append a unit.

CC1(C)CCC(c2ccc(Cl)cc2)=C(CN2CCN(c3ccc(C(=O)NS(=O)(=O)c4ccc(N[C@H](CCN5CCOCC5)CSc5ccccc5)c(S(=O)(=O)C(F)(F)F)c4)cc3)CC2)C1 [Navitoclax] + Nc1ncn([C@H]2C[C@H](O)[C@@H](CO)O2)c(=O)n1 [Decitabine] (partner 2 µM) :: 0.701
CC1(C)CCC(c2ccc(Cl)cc2)=C(CN2CCN(c3ccc(C(=O)NS(=O)(=O)c4ccc(N[C@H](CCN5CCOCC5)CSc5ccccc5)c(S(=O)(=O)C(F)(F)F)c4)cc3)CC2)C1 [Navitoclax] + O=C(CCCCCCC(=O)Nc1ccccc1)NO [Vorinostat] (partner 1 µM) :: 0.862

// moving on: another record for relative viability
# relative viability of CC1(C)CCC(c2ccc(Cl)cc2)=C(CN2CCN(c3ccc(C(=O)NS(=O)(=O)c4ccc(N[C@H](CCN5CCOCC5)CSc5ccccc5)c(S(=O)(=O)C(F)(F)F)c4)cc3)CC2)C1 [Navitoclax] + C[C@]1(O)C[C@@H](c2nc(-c3ccc4ccc(-c5ccccc5)nc4c3)c3c(N)nccn32)C1 [Linsitinib] (partner 1 µM) = 1.34
